# testedOn: T1, HLA-DRB1*04:05 (human)
# T1 construct: MHC class II molecule; how it was prepared for the assay is not described
# assayRemarks: HLA class II competition binding assay
observable: pIC50
Note: pIC50 values are expressed as the negative base-10 logarithm of concentration in M.

Supply pIC50 value. Item: LSQLQTYMIQFDQYI [ApoB100 peptide 3563.0012] 7.16
